Could you please report measured LD50 for the items listed next?
- assaySummary: Acute toxicity
- cond: rat, in vivo, iv; rats, dd strain, 18 to 22 g, fasted 12 hours; read-out: LD50 (50% lethal dose), i.v.
Answers are plain numbers, in mg/kg.

Consider the worked cases shown below.
molecule: O=C(O)c1cn2c3c(cccc3c1=O)C1CCCCC12 (stereo not drawn)
LD50, mg/kg: 120
//
molecule: Cc1cc(C)c2c(=O)c(C(=O)O)cn3c2c1C1CCCCC13 (stereo not drawn)
LD50, mg/kg: 120
//
molecule: O=C(O)c1cn2c3c(cc(F)cc3c1=O)C1CCCCC12 (stereo not drawn)
LD50, mg/kg: 130
//
molecule: CC(=O)Nc1ccc2c3c1c(=O)c(C(=O)O)cn3C1CCCCC21 (stereo not drawn)
LD50, mg/kg: 110
//
molecule: Nc1ccc2c3c1c(=O)c(C(=O)O)cn3C1CCCCC21 (stereo not drawn)
LD50, mg/kg: 115

Batch request: LD50 for each of the following molecules.
1. O=C(OCCBr)c1cn2c3c(cc(F)cc3c1=O)C1CCCCC12 (stereo not drawn)
2. CC1CCN(CCOC(=O)c2cn3c4c(cc(F)cc4c2=O)C2CCCCC23)CC1 (stereo not drawn)
3. O=C(O)c1cn2c3c(ccc([N+](=O)[O-])c3c1=O)C1CCCCC12 (stereo not drawn)
4. O=C(NN=Cc1ccc([N+](=O)[O-])o1)c1cn2c3c(cc(F)cc3c1=O)C1CCCCC12 (stereo not drawn)

### Response
1. 105
2. 130
3. 110
4. 180

----------
Esherichia coli NIHJ: recorded MIC for assorted compounds
Numbers only, in µg/mL.

compound: O=C(O)c1cn2c3c(cccc3c1=O)C1CCCCC12 (stereo not shown) [Compound 2]
unitAbbreviation: µg/mL
MIC: 25
--
compound: CC1CCN(CCOC(=O)c2cn3c4c(cc(F)cc4c2=O)C2CCCCC23)CC1 (stereo not shown) [Compound 12]
unitAbbreviation: µg/mL
MIC: 6.3
--
compound: O=C(O)c1cn2c3c(cc(F)cc3c1=O)C1CCCCC12 (stereo not shown) [Compound 1]
unitAbbreviation: µg/mL
MIC: 6.3

Read the next record carefully.
### Prompt Suppose we examine the compound CCn1cc(C(=O)O)c(=O)c2ccc(C)nc21 [Compound 13, reference compound] ; what MIC value has been reported?
### Response 12.5

----------
- assaySummary: Acute toxicity
- cond: rat, in vivo, po; rats, dd strain, 18 to 22 g, fasted 12 hours; read-out: LD50 (50% lethal dose), p.o.
Could you please report measured LD50 for the items listed next?
Provide the measurement as a number trailed by its unit.

Consider the worked cases shown below.
compound: O=C(O)c1cn2c3c(ccc([N+](=O)[O-])c3c1=O)C1CCCCC12 (centres unmarked)
result: 4000 mg/kg
--
compound: NNC(=O)c1cn2c3c(cc(F)cc3c1=O)C1CCCCC12 (centres unmarked)
result: 3500 mg/kg
--
compound: O=C(OCCBr)c1cn2c3c(cc(F)cc3c1=O)C1CCCCC12 (centres unmarked)
result: 3000 mg/kg
--
compound: Nc1ccc2c3c1c(=O)c(C(=O)O)cn3C1CCCCC21 (centres unmarked)
result: 4500 mg/kg

Read the next record carefully.
### Prompt Suppose we examine the compound CCOC(=O)c1cn2c3c(cc(F)cc3c1=O)C1CCCCC12 (centres unmarked) ; what LD50 value has been reported?
### Response 3000 mg/kg
